Collected BT-474 pAkt (S473) IC50 values appear next to each entry.
system: Human HER3, endogenous, on human cancer cell lines (SK-Br-3, MCF7, BT-474) (human, UniProt P21860 20-1342)
Sequence (P21860 20-1342): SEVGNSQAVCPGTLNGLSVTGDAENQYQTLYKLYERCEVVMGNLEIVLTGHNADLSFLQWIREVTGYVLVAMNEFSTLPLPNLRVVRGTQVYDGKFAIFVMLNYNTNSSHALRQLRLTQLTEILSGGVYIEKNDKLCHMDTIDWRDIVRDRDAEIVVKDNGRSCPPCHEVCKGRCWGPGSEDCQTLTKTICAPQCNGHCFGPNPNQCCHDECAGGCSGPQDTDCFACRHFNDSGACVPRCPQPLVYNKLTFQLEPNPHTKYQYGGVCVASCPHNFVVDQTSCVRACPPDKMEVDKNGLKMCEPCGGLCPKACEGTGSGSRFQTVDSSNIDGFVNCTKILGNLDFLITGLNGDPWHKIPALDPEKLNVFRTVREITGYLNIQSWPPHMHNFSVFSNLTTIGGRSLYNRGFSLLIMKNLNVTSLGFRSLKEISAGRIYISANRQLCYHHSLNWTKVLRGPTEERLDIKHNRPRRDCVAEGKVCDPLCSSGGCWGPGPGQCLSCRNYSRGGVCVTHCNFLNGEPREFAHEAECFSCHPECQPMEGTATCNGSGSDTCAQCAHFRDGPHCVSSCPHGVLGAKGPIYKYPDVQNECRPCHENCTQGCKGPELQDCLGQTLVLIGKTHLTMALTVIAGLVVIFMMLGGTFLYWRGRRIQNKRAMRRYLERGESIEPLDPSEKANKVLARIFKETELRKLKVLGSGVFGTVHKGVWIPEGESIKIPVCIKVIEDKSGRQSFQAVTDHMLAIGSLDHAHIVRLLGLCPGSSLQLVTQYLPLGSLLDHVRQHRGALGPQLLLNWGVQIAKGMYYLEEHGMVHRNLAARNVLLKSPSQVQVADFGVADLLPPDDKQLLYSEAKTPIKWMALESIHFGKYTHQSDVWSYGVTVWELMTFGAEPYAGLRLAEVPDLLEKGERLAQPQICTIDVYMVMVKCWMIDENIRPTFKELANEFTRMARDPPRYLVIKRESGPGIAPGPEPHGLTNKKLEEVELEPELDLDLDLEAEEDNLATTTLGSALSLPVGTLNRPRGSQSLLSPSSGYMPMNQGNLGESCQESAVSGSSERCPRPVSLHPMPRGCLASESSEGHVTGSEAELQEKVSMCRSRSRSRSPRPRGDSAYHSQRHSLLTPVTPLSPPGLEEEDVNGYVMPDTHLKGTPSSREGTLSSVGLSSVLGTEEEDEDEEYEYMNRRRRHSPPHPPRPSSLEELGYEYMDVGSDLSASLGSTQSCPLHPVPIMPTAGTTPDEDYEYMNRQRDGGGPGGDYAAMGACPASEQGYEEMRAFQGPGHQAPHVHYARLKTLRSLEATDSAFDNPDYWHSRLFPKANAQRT
assayRemarks: cell-based or functional assay
Answer format: numeric, pM implied, no suffix.

MOR13767 (antibody, human IgG1, kappa, V domains shown, tested as IgG) VH: QVQLVQSGAEVKKPGESLKISCKGSGYSFTTSWVAWVRQMPGKGLEWMGIIYPGQSDTIYSPSFQGQVTISADKSISTAYLQWSSLKASDTAMYYCARVHIIQPPSAWSYNAMDVWGQGTLVTVSS VL: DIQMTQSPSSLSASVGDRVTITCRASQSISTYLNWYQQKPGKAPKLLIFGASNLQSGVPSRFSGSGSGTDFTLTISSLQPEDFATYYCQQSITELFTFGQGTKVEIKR : 167
MOR13765 (antibody, human IgG1, kappa, V domains shown, tested as IgG) VH: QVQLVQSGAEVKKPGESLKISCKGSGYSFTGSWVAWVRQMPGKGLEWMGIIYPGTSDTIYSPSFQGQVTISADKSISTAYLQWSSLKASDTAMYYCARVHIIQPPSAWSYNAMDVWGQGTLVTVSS VL: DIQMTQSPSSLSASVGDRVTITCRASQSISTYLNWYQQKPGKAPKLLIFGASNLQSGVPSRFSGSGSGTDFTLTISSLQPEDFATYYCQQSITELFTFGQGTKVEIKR : 1180
MOR12616 (antibody, human IgG1, kappa, V domains shown, tested as IgG) VH: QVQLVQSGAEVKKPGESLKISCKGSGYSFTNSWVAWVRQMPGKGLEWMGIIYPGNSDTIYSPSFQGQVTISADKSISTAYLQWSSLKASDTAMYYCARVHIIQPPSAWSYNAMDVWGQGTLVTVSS VL: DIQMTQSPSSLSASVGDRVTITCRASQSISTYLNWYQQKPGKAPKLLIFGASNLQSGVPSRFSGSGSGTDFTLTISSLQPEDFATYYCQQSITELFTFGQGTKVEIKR : 316
MOR13750 (antibody, human IgG1, kappa, V domains shown, tested as IgG) VH: QVQLVQSGAEVKKPGESLKISCKGSGYSFTSSWVAWVRQMPGKGLEWMGIIYPGGSDTIYSPSFQGQVTISADKSISTAYLQWSSLKASDTAMYYCARVHIIQPPSAWSYNAMDVWGQGTLVTVSS VL: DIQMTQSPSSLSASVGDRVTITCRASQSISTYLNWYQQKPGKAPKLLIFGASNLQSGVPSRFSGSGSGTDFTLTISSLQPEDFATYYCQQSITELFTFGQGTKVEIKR : 17800
MOR13766 (antibody, human IgG1, kappa, V domains shown, tested as IgG) VH: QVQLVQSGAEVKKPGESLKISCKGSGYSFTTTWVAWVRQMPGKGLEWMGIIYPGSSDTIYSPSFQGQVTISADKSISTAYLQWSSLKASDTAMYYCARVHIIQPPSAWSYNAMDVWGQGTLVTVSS VL: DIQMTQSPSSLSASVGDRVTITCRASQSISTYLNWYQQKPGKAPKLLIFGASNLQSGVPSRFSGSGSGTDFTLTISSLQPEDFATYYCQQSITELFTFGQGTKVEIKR : 1190

Moving on to another binder below.
Record request: BT-474 pAkt (S473) IC50 value, item MOR13758 (antibody, human IgG1, kappa, V domains shown, tested as IgG) VH: QVQLVQSGAEVKKPGESLKISCKGSGYSFTLYWVAWVRQMPGKGLEWMGIIYPGQSDTIYSPSFQGQVTISADKSISTAYLQWSSLKASDTAMYYCARVHIIQPPSAWSYNAMDVWGQGTLVTVSS VL: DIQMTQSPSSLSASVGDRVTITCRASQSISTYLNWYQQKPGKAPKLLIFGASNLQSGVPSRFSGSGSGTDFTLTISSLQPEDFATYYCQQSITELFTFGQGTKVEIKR
371

Where do the numbers come from? From patent US20130273029A1.
